For each entry below, report its pEC50 value.
tgt: human β3 adrenergic receptor (Homo sapiens, UniProt P13945)
Construct: stably transfected with the cloned β-adrenergic receptor (β1, β2 or β3); expressed in transfected cells; host or cells: Chinese hamster ovary (CHO) cells, stably transfected
Sequence (P13945 whole entry): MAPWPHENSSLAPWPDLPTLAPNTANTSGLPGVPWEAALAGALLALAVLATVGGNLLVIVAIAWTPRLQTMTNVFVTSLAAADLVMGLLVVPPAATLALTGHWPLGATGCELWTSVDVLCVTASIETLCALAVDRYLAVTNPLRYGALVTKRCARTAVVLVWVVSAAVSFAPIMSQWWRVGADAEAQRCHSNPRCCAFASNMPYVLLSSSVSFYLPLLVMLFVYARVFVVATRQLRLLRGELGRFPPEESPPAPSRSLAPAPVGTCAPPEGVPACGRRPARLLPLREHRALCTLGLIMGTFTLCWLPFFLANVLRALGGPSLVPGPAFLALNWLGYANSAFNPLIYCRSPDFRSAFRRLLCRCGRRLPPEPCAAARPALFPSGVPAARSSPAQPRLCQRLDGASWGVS
procedureText: Functional assay: cAMP production (LANCE TR-FRET) in CHO cells stably transfected with cloned β3 adrenergic receptor
Format: cell-based
conditionParameters: Table 3; cAMP production, CHO cells expressing human β3 AR; read-out: Human β3 functional
pEC50: −log10 of the molar value.

Some compounds with known pEC50 results, for comparison:
CC(C(=O)Nc1ccc(CC2CC[C@H]([C@H](O)c3cccnc3)N2)cc1)n1cnnn1 (single isomer, unassigned) [Example 183] | 8.00 to 9.00
Cc1ccn(C(C)C(=O)Nc2ccc(CC3CC[C@H]([C@H](O)c4cccnc4)N3)cc2)n1 (single isomer, unassigned) [Example 100] | 5.52 to 6.00
O=C(Nc1ccc(CC2CC[C@H]([C@H](O)c3cccnc3)N2)cc1)C1CCc2cccnc21 (single isomer, unassigned) [Example 128] | 8.00 to 9.00
CC(C(=O)Nc1ccc(CC2CC[C@H]([C@H](O)c3cccnc3)N2)cc1)n1cc(C(N)=O)cn1 (single isomer, unassigned) | 8.00 to 9.00
C#CCC(C(=O)Nc1ccc(CC2CC[C@H]([C@H](O)c3cccnc3)N2)cc1)c1cnc(N)s1 (single isomer, unassigned) | 8.00 to 9.00
Cc1nc2c(s1)CCCC2C(=O)Nc1ccc(CC2CC[C@H]([C@H](O)c3cccnc3)N2)cc1 (single isomer, unassigned) [Example 132] | 6.00 to 7.00

Dear colleague, could you send me pEC50 for each of the items below? Thanks.
1. CC(C(=O)Nc1ccc(CC2CC[C@H]([C@H](O)c3cccnc3)N2)cc1)n1cc(C(N)=O)nn1 (single isomer, unassigned) [Example 200]
2. CC(C(=O)Nc1ccc(CC2CC[C@H]([C@H](O)c3cccnc3)N2)cc1)n1cccnc1=O (single isomer, unassigned)
3. O=C(Nc1ccc(CC2CC[C@H]([C@H](O)c3cccnc3)N2)cc1)C1CCc2sc(C3CC3)nc21 (single isomer, unassigned) [Example 121]

[out]
1. 7.00 to 7.96
2. 8.00 to 9.00
3. 7.00 to 7.96

Dear colleague, could you send me pEC50 for each of the items below? Thanks.
1. CC(F)(C(=O)Nc1ccc(CC2CC[C@H]([C@H](O)c3cccnc3)N2)cc1)c1ccccn1 (single isomer, unassigned) [Example 147]
2. O=C(Nc1ccc(CC2CC[C@H]([C@H](O)c3cccnc3)N2)cc1)C1CCc2sc(Cl)nc21 (single isomer, unassigned) [Example 186]

[out]
1: 6.00 to 7.00; 2: > 9.00

[in] Could you please provide reported pEC50 for CCc1nc2c(s1)CCC2C(=O)Nc1ccc(CC2CC[C@H]([C@H](O)c3cccnc3)N2)cc1 (single isomer, unassigned) [Example 119] ? Thanks!
[out] 6.00 to 7.00
